This section presents IC50 values reported for UniProtKB P08238 in the literature.
Observation type: IC50 (nM)

- Cc1cn(-c2cc3c(c(C4CCOCC4)c2)C(=O)NCC3)c2c1C(=O)CC(C)(C)C2: 19
- CCNC(=O)c1noc(-c2cc(C(C)C)c(O)cc2O)c1NC(=O)CCN1CCOCC1: 214
- CCNC(=O)c1noc(-c2cc(C(C)C)c(O)cc2O)c1NC(=O)c1ccc2ncoc2c1: 15
- O=C(O[C@H]1Cc2c(O)cc(O)cc2O[C@@H]1c1ccc(O)c(O)c1)c1ccccc1: 110000
- CC(C)c1ccc(O)c(C(=O)N2Cc3ccccc3C2)c1: 1600
- O=C(O[C@@H]1Cc2c(O)cc(O)cc2O[C@@H]1c1ccc(O)c(O)c1)[C@H]1CC[C@H](F)CC1: 69000
- COc1ccc(C(=O)Nc2c(C(=O)NCC(F)(F)F)noc2-c2cc(Cl)c(O)cc2O)cc1: 160
- O=C(O[C@H]1Cc2c(O)cc(O)cc2O[C@@H]1c1ccccc1)c1cc(O)c(O)c(O)c1 (racemic): 150000

1. c1ccc2cc(Cn3cc(CN(Cc4cn(Cc5ccc6ccccc6c5)nn4)Cc4cn(Cc5ccc6ccccc6c5)nn4)nn3)ccc2c1
2. CCNC(=O)c1noc(-c2cc(C(C)C)c(O)cc2O)c1NC(=O)c1cc(C(C)=O)on1
Prompt line: Which of these two has the smaller recorded IC50: 1 or 2 ? Refer to your chosen item by its label in the answer.
Response line: 2
(2: 19 nM, 1: 16000 nM)
